# Target Under Test: N-terminally GST-tagged DLK (catalytic domain amino acid 1-520) (Homo sapiens)
# Construct: N-terminally GST-tagged DLK (catalytic domain amino acid 1-520)
# Measurement Protocol: DLK TR-FRET inhibition assay
# Experimental Parameters: 5 nM GST-DLK, 40 nM HIS-MKK4 K131M substrate, 30 μM ATP, 60 minutes at ambient temperature
Consider the following molecules and their measured pKi readings.
Recall that pKi is obtained by taking minus log10 of the concentration measured in molar.

Consider the reported pKi for these molecules:
> print(dat)
                                   molecule                         target.under.test  assay.readout  reported.result
1  COCCO[C@@H]1C[C@@H]2[C@H](C1)[C@H]2c1cc(-c2cnc(N)c(C(F)(F)F)c2)nn1C(C)C  N-terminally GST-tagged DLK (catalytic domain amino acid 1-520) (Homo sapiens)            pKi             8.33
2  CC(C)n1nc(-c2cnc(N)c(OC(F)(F)F)c2)cc1[C@H]1[C@@H]2C[C@@H](N3CCN(C)C[C@@H]3C)C[C@@H]21  N-terminally GST-tagged DLK (catalytic domain amino acid 1-520) (Homo sapiens)            pKi             8.96
3  CC(C)n1nc(-c2cnc(N)c(C(F)(F)F)c2)cc1[C@H]1[C@@H]2C[C@H](n3ccnc3)C[C@@H]21  N-terminally GST-tagged DLK (catalytic domain amino acid 1-520) (Homo sapiens)            pKi             8.04
4  CC(C)n1nc(-c2cnc(N)c(OC(F)F)c2)cc1[C@H]1[C@@H]2C[C@H](N3CCN4CCCC4C3)C[C@@H]21 (stereo partly shown)  N-terminally GST-tagged DLK (catalytic domain amino acid 1-520) (Homo sapiens)            pKi             9.40
5  Nc1ncc(-c2cc([C@H]3[C@@H]4C[C@@H](N5CCOCC5)C[C@@H]43)n(CC3CC3)n2)cc1OC(F)F  N-terminally GST-tagged DLK (catalytic domain amino acid 1-520) (Homo sapiens)            pKi             8.80
6  CO[C@@H]1CCN([C@H]2C[C@@H]3[C@H](C2)[C@H]3c2cc(-c3cnc(N)c(C(F)(F)F)c3)nn2C(C)C)C1  N-terminally GST-tagged DLK (catalytic domain amino acid 1-520) (Homo sapiens)            pKi             8.80
7  CC(C)n1nc(-c2cnc(N)c(C(F)(F)F)c2)cc1[C@H]1[C@@H]2C[C@@H](N3CCN[C@@H](C)C3)C[C@@H]21  N-terminally GST-tagged DLK (catalytic domain amino acid 1-520) (Homo sapiens)            pKi             8.42
8  CO[C@H]1CCN([C@H]2C[C@@H]3[C@H](C2)[C@H]3c2cc(-c3cnc(N)c(OC(F)F)c3)nn2CC2CC2)C1  N-terminally GST-tagged DLK (catalytic domain amino acid 1-520) (Homo sapiens)            pKi             8.92

Kindly review the next molecule as well.
The value of pKi measured for the molecule CC(C)n1nc(-c2cnc(N)c(C(F)(F)F)c2)cc1[C@H]1[C@@H]2C[C@H](N3CC4(CCCO4)C3)C[C@@H]21 turned out to be 8.35

* * *

# Target Under Test: N-terminally GST-tagged DLK (catalytic domain amino acid 1-520) (Homo sapiens, UniProt Q12852)
# Construct: N-terminally GST-tagged DLK (catalytic domain amino acid 1-520)
# Sequence (Q12852 1-520): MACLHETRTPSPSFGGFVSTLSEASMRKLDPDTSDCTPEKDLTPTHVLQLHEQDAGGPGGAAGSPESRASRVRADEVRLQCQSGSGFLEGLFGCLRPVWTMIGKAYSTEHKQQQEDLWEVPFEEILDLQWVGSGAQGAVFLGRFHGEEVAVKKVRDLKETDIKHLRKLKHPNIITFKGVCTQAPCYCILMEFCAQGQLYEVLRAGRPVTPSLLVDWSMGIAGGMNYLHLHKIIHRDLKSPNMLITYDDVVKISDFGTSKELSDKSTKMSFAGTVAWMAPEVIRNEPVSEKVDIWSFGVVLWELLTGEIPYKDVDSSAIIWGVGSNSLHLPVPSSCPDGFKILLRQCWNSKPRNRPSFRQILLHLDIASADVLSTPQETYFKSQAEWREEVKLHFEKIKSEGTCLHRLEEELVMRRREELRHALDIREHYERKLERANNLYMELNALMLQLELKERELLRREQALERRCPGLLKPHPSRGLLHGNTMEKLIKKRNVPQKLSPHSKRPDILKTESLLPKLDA
# Measurement Protocol: DLK TR-FRET inhibition assay
# Experimental Parameters: 5 nM GST-DLK, 40 nM HIS-MKK4 K131M substrate, 30 μM ATP, 60 minutes at ambient temperature
Assay Readout: pKi
Recall that pKi is obtained by taking minus log10 of the concentration measured in molar.

> print(dat)
                                   compound  reported.result
1  CC(C)n1nc(-c2cnc(N)c(OC(F)F)c2)cc1[C@H]1[C@@H]2C[C@@H](N3CCO[C@H](C)C3)C[C@@H]21             8.43
2  CCN1CCN([C@@H]2C[C@@H]3[C@H](C2)[C@H]3c2cc(-c3cnc(N)c(OC(F)(F)F)c3)nn2C(C)C)CC1             8.45
3  CC(C)n1nc(-c2cnc(N)c(C(F)(F)F)c2)cc1[C@H]1[C@@H]2C[C@@H](NCC(F)F)C[C@@H]21             8.62

The value of pKi measured for the compound CC(C)n1nc(-c2cnc(N)c(OC(F)F)c2)cc1[C@H]1[C@@H]2C[C@H](F)C[C@@H]21 turned out to be 8.29

The value of pKi measured for the compound CC(C)n1nc(-c2cnc(N)c(OC(F)(F)F)c2)cc1[C@H]1[C@@H]2C[C@@H](N3CCO[C@@H](C)C3)C[C@@H]21 turned out to be 8.37

The value of pKi measured for the compound CC(C)n1nc(-c2cnc(N)c(OC(F)(F)F)c2)cc1[C@H]1[C@@H]2C[C@@H](N3C[C@@H]4C[C@H]3CN4C)C[C@@H]21 turned out to be 8.59

The value of pKi measured for the compound CC(C)n1nc(-c2cnc(N)c(OC(F)(F)F)c2)cc1[C@H]1[C@@H]2C[C@H](N(C)C3COC3)C[C@@H]21 turned out to be 8.39

The value of pKi measured for the compound CC(C)n1nc(-c2cnc(N)c(C(F)(F)F)c2)cc1[C@@H]1[C@H]2CC[C@@H](N3CCOCC3)[C@H]21 (single isomer, unassigned) [compound 138] turned out to be 7.89

The value of pKi measured for the compound CC(C)n1nc(-c2cnc(N)c(OC(F)F)c2)cc1[C@H]1[C@@H]2C[C@@]3(CCN3CC(F)F)C[C@@H]21 turned out to be 8.59

The value of pKi measured for the compound Nc1ncc(-c2cc([C@H]3[C@@H]4C[C@@H](N5CCOCC5)C[C@@H]43)n(C3CCCC3)n2)cc1OC(F)F turned out to be 8.32
